# target.under.test: CYP2D6 (Homo sapiens, UniProt P10635)
# Sequence (P10635 whole entry): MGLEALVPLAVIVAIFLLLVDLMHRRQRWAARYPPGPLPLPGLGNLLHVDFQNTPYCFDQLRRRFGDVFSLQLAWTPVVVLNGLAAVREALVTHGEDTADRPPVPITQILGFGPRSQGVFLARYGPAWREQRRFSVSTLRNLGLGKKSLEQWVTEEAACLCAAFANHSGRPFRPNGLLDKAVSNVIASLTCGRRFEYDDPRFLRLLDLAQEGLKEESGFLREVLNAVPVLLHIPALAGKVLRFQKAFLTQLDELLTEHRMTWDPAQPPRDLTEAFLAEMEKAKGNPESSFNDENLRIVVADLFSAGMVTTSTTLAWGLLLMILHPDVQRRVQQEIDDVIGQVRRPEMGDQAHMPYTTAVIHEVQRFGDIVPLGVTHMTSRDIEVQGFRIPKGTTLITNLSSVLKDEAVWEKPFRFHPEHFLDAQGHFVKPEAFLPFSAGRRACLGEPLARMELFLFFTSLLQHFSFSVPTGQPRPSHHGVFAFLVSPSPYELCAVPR
Entries annotated with measured IC50
The figure you give is taken to be in µM; do not add the unit.

compound	target.under.test	experimental.value
Cc1cc(Nc2ncnc3ccc(NC4=NC(C)(C)CO4)cc23)ccc1Oc1cc2nncn2cn1 [Embodiment 4]	CYP2D6 (Homo sapiens, UniProt P10635)	12

Then this compound:
Ask | What does the data say about its IC50? Entry: Cc1cc(Nc2ncnc3ccc(NC4=NC(C)(C)CO4)cc23)ccc1Oc1ccn2ncnc2c1 [ARRY-380, reference compound]
Reply | 3

* * *

# target.under.test: EGFR kinase (Homo sapiens, UniProt P00533)
# Sequence (P00533 25-1210): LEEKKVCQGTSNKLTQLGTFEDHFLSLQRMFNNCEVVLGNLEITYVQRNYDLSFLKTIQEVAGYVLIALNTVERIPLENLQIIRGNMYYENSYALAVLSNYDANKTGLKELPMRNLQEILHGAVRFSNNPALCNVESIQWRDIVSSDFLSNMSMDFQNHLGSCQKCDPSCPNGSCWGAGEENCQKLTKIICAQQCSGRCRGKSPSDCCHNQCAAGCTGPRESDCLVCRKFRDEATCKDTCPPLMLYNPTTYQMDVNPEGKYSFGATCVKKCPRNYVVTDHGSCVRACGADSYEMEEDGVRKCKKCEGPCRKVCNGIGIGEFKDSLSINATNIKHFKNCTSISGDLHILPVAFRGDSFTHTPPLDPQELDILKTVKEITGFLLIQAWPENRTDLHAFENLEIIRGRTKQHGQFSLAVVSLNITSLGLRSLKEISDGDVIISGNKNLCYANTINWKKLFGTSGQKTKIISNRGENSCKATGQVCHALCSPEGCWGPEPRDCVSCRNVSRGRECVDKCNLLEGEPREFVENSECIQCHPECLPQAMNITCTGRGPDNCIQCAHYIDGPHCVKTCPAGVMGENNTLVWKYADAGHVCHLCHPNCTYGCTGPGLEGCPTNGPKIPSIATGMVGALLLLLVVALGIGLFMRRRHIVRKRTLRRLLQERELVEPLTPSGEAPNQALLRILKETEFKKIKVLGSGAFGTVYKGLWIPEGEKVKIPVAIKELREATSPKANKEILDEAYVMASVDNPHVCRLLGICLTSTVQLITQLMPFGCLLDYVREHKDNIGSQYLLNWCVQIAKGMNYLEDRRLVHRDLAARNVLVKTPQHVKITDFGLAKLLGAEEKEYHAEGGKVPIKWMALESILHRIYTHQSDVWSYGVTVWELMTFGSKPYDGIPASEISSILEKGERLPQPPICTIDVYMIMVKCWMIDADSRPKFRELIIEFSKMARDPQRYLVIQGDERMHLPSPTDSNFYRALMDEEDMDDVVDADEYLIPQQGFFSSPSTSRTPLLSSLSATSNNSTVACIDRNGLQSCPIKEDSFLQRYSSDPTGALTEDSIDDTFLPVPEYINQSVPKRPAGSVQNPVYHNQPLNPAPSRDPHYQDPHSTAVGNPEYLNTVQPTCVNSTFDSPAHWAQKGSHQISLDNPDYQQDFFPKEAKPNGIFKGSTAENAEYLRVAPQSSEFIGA
# experiment.notes: Enzymatic experiment on EGFR (HTRF kinEASE-TK)
# Format: biochemical
# study.conditions: ATP 1.65 μM; read-out: Kinase IC50 (nM) in vitro EGFR
IC50: recorded values
API: value field is a number in nM; no unit string.

molecule	units.text	IC50
Cc1cc(Nc2ncnc3ccc(/C=C/CNC(=O)C4CC4)cc23)ccc1Oc1cc2nncn2cn1	nM	87.2
CCOC(=O)Nc1cccc(-c2ccc3ncnc(Nc4ccc(Oc5cc6nncn6cn5)c(C)c4)c3c2)c1	nM	28.1
Cc1cc(Nc2ncnc3ccc(NC4=NC5(CC5)CO4)cc23)ccc1Oc1cc2nncn2cn1	nM	4.3

Consider now this further molecule.
Ask | Entry Cc1cc(Nc2ncnc3ccc(Br)cc23)ccc1Oc1cc2nncn2cn1 : reported IC50 = ?
Reply | 703

* * *

Listed here are molecules together with their documented IC50.
Target sequence: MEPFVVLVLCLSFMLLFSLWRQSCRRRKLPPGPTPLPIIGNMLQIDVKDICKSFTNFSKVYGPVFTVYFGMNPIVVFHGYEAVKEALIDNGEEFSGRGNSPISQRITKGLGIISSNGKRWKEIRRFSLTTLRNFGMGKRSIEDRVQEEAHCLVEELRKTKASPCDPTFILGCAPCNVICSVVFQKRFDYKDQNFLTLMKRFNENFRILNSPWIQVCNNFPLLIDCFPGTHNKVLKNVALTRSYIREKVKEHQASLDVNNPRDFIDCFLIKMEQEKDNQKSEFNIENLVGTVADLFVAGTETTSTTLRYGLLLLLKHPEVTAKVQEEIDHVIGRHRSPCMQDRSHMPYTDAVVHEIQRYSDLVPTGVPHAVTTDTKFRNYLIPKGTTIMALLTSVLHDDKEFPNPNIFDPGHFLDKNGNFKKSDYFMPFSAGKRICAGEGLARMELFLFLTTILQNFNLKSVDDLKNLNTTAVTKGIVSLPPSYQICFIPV
Numeric only. Scale: µM

molecule	parameter	experimental.value
Cc1cc(Nc2ncnc3ccc(NC4=NC(C)(C)CO4)cc23)ccc1Oc1ccn2ncnc2c1 [ARRY-380, reference compound]	IC50	3

Ask | Please give the measured IC50 for this molecule: Cc1cc(Nc2ncnc3ccc(NC4=NC(C)(C)CO4)cc23)ccc1Oc1cc2nncn2cn1 [Embodiment 4]
Reply | 15

* * *

# target.under.test: EGFR kinase (Homo sapiens, UniProt P00533)
# experiment.notes: Enzymatic experiment on EGFR (HTRF kinEASE-TK)
# Assay type: biochemical
# study.conditions: ATP 1.65 μM; read-out: Kinase IC50 (nM) in vitro EGFR
Entries and their IC50
Respond with a number, then the unit of measure.

Past entries and their recorded results:
molecule	IC50
Cc1cc(Nc2ncnc3ccc(NC4=NC(C)(C)CO4)cc23)ccc1Oc1ccn2nccc2n1 [reference compound]	82.7 nM
Cc1cc(Nc2ncnc3ccc(-c4ccc(CNCCS(C)(=O)=O)n4C)cc23)ccc1Oc1cc2nncn2cn1	32.8 nM
Cc1cc(Nc2ncnc3ccc(-c4cc[nH]c4)cc23)ccc1Oc1cc2nncn2cn1	12.6 nM
Cc1cc(Nc2ncnc3ccc(NC(=O)N4CCN(C)CC4)cc23)ccc1Oc1cc2nncn2cn1	143 nM
Cc1cc(Nc2ncnc3ccc(NC(=O)Nc4cc(C)n(C)n4)cc23)ccc1Oc1cc2nncn2cn1	34.9 nM

Ask | Quick check: IC50 of Cc1cc(Nc2ncnc3ccc(NC(=O)/C(C#N)=C/C4CC4)cc23)ccc1Oc1cc2nncn2cn1 ?
Reply | 14.9 nM

Ask | What IC50 value was documented for this molecule, Cc1cc(Nc2ncnc3ccc(-c4cccc(N)c4)cc23)ccc1Oc1cc2nncn2cn1 ?
Reply | 10.9 nM

Ask | Which measured IC50 value corresponds to Cc1cc(Nc2ncnc3ccc(NC4=NCC5(CCN(C(=O)OC(C)(C)C)CC5)O4)cc23)ccc1Oc1cc2nncn2cn1 ?
Reply | 499 nM

Ask | May I ask what IC50 has been recorded for COc1cc2ncnc(Nc3ccc(Oc4cc5nncn5cn4)c(C)c3)c2cc1OC1CCNCC1 ?
Reply | 12.7 nM

Ask | Requested field: IC50. Item: C=C(F)C(=O)Nc1cc2c(Nc3ccc(Oc4cc5nncn5cn4)c(C)c3)ncnc2cc1F
Reply | 14.7 nM

Ask | Look up IC50: CN1CCC[C@@H]1/C=C/C(=O)Nc1ccc2ncnc(Nc3ccc(Oc4cc5nncn5cn4)c(Cl)c3)c2c1
Reply | 1.6 nM

Ask | IC50 for Cc1cc(Nc2ncnc3ccc(NC(=O)/C=C/[C@@H]4CCCN4C)cc23)ccc1Oc1cc2nncn2cn1 ?
Reply | 11.4 nM

Ask | Fill blank: measured IC50 of the molecule Cc1cc(Nc2ncnc3ccc(-c4cccc(NCCS(C)(=O)=O)c4)cc23)ccc1Oc1cc2nncn2cn1 is ____.
Reply | 75.9 nM

Ask | Look at this molecule and give its reported IC50. Cc1cc(Nc2ncnc3ccc(NC4=N[C@H](C(C)C)CO4)cc23)ccc1Oc1cc2nncn2cn1
Reply | 53.4 nM

Ask | # IC50 lookup, item C=CC(=O)Nc1ccc2ncnc(Nc3ccc(Oc4cc5nncn5cn4)c(C)c3)c2c1
Reply | 2.3 nM

Ask | Need IC50, item CCNC(=O)NC/C=C/c1ccc2ncnc(Nc3ccc(Oc4cc5nncn5cn4)c(C)c3)c2c1
Reply | 28.1 nM

* * *

Form field: log10(IC50) (one value per entry).
# target.under.test: EGFR kinase (Homo sapiens, UniProt P00533)
# experiment.notes: Enzymatic experiment on EGFR (HTRF kinEASE-TK)
# Assay type: biochemical
# study.conditions: ATP 1.65 μM; read-out: Kinase IC50 (nM) in vitro EGFR
On a log10 scale: recorded IC50, unit nM.

Consider the worked cases shown below.
compound	log10(IC50)
Cc1cc(Nc2ncnc3ccc(NC4=NC5(CO4)CN(C(=O)OC(C)(C)C)C5)cc23)ccc1Oc1cc2nncn2cn1	1.99
Cc1cc(Nc2ncnc3ccc(NC(=S)NC(C)(C)CO)cc23)ccc1Oc1cc2nncn2cn1	2.65
Cc1cc(Nc2ncnc3ccc(-n4cccc4)cc23)ccc1Oc1cc2nncn2cn1	1.56
C=CC(=O)Nc1ccc(-c2ccc3ncnc(Nc4ccc(Oc5cc6nncn6cn5)c(C)c4)c3c2)cn1	2.57
Cc1cc(Nc2ncnc3ccc(NC4=NCC(C)(C)O4)cc23)ccc1Oc1cc2nncn2cn1	2.69
Cc1cc(Nc2ncnc3ccc(NC(=O)C4CC(Br)=NO4)cc23)ccc1Oc1cc2nncn2cn1 (stereo not shown)	2.31

Ask | So what's the measured log10(IC50) for this one? Cc1cc(Nc2ncnc3ccc(NC4=NC5(CO4)CC(O)C5)cc23)ccc1Oc1cc2nncn2cn1 (stereo not shown)
Reply | 0.91

* * *

# target.under.test: ErbB2 kinase (Homo sapiens)
# Sequence (P04626 23-1255): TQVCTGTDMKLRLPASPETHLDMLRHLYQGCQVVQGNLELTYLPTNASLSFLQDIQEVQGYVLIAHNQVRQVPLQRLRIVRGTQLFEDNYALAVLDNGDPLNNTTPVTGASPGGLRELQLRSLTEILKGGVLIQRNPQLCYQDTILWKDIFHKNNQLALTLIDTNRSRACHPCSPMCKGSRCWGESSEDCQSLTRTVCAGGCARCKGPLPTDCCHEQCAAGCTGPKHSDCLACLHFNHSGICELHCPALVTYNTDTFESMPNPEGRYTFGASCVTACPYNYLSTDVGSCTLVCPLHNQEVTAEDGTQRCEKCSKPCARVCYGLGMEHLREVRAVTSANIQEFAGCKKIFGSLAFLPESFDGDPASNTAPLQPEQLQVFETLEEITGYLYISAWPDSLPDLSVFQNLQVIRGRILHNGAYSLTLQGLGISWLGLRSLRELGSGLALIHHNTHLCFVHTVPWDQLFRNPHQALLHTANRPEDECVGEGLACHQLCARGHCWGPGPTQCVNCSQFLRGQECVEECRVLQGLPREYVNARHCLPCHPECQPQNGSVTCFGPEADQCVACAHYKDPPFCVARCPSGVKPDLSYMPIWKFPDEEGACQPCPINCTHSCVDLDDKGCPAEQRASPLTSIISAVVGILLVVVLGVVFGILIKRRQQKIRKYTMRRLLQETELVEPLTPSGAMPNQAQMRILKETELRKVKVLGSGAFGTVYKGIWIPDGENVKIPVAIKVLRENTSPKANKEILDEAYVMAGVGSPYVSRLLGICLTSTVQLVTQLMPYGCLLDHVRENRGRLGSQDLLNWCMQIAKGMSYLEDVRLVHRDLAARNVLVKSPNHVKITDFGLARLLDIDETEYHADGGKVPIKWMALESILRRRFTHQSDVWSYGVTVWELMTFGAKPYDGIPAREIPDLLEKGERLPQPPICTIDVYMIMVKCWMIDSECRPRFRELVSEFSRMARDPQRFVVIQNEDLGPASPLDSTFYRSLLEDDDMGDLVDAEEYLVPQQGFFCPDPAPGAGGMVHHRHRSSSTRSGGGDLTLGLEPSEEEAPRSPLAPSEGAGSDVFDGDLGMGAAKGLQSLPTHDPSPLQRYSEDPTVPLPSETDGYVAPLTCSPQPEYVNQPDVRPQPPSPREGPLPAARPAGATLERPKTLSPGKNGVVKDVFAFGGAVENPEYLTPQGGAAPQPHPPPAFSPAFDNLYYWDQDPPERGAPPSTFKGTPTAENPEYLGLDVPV
# experiment.notes: Enzymatic experiment on ErbB2 (HTRF kinEASE-TK)
# Assay type: biochemical
# study.conditions: ATP 4 μM; read-out: Kinase IC50 (nM) in vitro ErbB2
# Description: Enzymatic Experiment on EGFR/ErbB2 Firstly, preparing 1× reaction buffer required for the kinase, 5× Enzymatic buffer (HEPES 20 mM pH7.0, NaN3 0.1%, BSA 0.05%, sodium orthovanadate 0.5 mM) in the HTRF kinEASE-TK kit was diluted to 1 time with deionized water, 50 nM Supplement Enzymatic buffer (SEB reagent), 1 mM MnCl2, 5 mM MgCl2 and 1 mM DTT were added. […]
Below, each entry is listed alongside its reported IC50.
Param answer (str): number followed by unit.

Example entries begin here.
molecule	IC50
C=CC(=O)N1CCC=C(c2ccc3ncnc(Nc4ccc(Oc5cc6nncn6cn5)c(C)c4)c3c2)C1	1.31 nM
COCC(=O)Nc1cccc(-c2ccc3ncnc(Nc4ccc(Oc5cc6nncn6cn5)c(C)c4)c3c2)c1	2.1 nM
CCC1COC(Nc2ccc3ncnc(Nc4ccc(Oc5cc6nncn6cn5)c(C)c4)c3c2)=N1 (stereo not drawn)	4.4 nM
Cc1cc(Nc2ncnc3ccc(-c4ccc(CNCCS(N)(=O)=O)o4)cc23)ccc1Oc1cc2nncn2cn1	1 nM
Cc1cc(Nc2ncnc3ccc(NC4=NC5(CC5)CO4)cc23)ccc1Oc1cc2nncn2cn1	0.9 nM
Cc1cc(Nc2ncnc3ccc(-c4ccc(CN5CCS(=O)(=O)CC5)o4)cc23)ccc1Oc1cc2nncn2cn1	1.8 nM

Alright, here's another molecule for you.
Ask | If you can, please state the reported IC50 value of C=CC(=O)Nc1ccc(-c2ccc3ncnc(Nc4ccc(Oc5cc6nncn6cn5)c(C)c4)c3c2)c(C)n1 .
Reply | 34 nM
